From: ChEMBL document CHEMBL4425152

// reported Papp per item
Test: in vitro
Conditions: human, Caco-2
measured.metric: Papp (×10⁻⁶ cm/s)

* COc1ccc(OC)c(CCn2cnc3sc4c(c3c2=O)CCC(C(=O)N(C)C)C4)c1 (stereo not drawn) | 46.8
* COc1cc(C(C)C)c(Oc2cnc(N)nc2N)cc1I | 30.6
* COc1cc(C(C)C)c(Oc2cnc(N)nc2N)cc1S(N)(=O)=O [GEFAPIXANT] | 0.7
